Data credit: the supplement of paper PMC10065799

Biological target: Jak2 (UniProt O60674)
Sequence (O60674 whole entry, looked up): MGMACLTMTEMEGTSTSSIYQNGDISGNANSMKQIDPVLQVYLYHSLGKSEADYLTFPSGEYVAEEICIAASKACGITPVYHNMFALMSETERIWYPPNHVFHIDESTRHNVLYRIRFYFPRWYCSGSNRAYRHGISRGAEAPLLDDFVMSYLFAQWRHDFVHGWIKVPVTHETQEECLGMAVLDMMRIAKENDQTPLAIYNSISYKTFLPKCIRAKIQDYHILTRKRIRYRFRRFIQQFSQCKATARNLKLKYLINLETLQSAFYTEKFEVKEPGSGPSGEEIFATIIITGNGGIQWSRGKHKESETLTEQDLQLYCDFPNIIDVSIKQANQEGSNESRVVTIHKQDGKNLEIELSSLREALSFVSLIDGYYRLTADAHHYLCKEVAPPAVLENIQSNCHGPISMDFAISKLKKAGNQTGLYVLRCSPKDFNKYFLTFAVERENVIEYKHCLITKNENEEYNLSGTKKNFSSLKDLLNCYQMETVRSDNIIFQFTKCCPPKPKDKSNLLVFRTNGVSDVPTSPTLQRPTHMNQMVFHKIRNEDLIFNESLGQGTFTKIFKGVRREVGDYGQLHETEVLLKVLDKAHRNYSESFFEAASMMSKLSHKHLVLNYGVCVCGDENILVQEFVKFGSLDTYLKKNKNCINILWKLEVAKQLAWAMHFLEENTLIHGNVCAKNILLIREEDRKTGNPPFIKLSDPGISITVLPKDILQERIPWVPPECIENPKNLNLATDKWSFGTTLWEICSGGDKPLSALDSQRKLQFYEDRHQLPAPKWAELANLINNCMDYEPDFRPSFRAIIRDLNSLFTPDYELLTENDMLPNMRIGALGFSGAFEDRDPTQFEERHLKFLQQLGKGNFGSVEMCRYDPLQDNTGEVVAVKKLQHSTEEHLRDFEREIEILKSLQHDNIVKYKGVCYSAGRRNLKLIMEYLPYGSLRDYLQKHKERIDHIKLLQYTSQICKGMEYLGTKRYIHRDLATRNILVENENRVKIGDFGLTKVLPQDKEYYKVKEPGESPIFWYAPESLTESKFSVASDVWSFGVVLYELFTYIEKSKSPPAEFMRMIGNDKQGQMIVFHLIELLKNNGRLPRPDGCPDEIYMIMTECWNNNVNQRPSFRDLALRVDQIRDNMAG
Assay: phosphorylation enrichment, bacterial display (enrichment ratio); higher = better substrate or ligand; peptides without Tyr show the background
Can you tell me phosphorylation enrichment for the items I'm about to list?
// no unit, no text: just the number

For Jak2 (UniProt O60674), provide phosphorylation enrichment of PVFEVYPLLNC [GATA1_Y78_Q76E] please.
1.48

For Jak2 (UniProt O60674), provide phosphorylation enrichment of SSMSDYNPLEK [MYOC_Y479_I477S] please.
0.756

For Jak2 (UniProt O60674), provide phosphorylation enrichment of ADRNHYRRFPR [YBX1_Y145_YF] please.
0.654

For Jak2 (UniProt O60674), provide phosphorylation enrichment of YETSHYLASPD [CTNND2_Y1217_P1218L] please.
0.809

For Jak2 (UniProt O60674), provide phosphorylation enrichment of WFQTKYEELQI [KRT6B_Y360_YF] please.
0.987

For Jak2 (UniProt O60674), provide phosphorylation enrichment of SISFDYCRVPM [BST2_Y8_T4I_YF] please.
1.43

For Jak2 (UniProt O60674), provide phosphorylation enrichment of RQQEDYLLYKQ [RARRES1_Y159] please.
2.46

====

Target: SHP2-C SH2;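 also: peptide library displayed on the E. coli surface as eCPX fusions, selected cells deep-sequenced, score is each peptide's frequency after selection divided by its frequency in the input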
Experiment: SH2 binding enrichment of the phosphorylated peptide, bacterial display (enrichment ratio); higher = better substrate or ligand; peptides without Tyr show the background
parameter_measured: SH2 binding enrichment
// no unit, no text: just the number

For SHP2-C SH2, provide SH2 binding enrichment of AGIVVYNIIGW [MYH7_Y588_D587V] please.
0.669

For SHP2-C SH2, provide SH2 binding enrichment of AIIEEYLHLSD [EIF4G1_Y1253_N1257S] please.
0.752

For SHP2-C SH2, provide SH2 binding enrichment of RIFDFYSARKT [STOX1_Y858_A863T_YF] please.
0.907

For SHP2-C SH2, provide SH2 binding enrichment of LFEDCYLLGTS [ASS1_Y87_R86C_YF] please.
0.924

For SHP2-C SH2, provide SH2 binding enrichment of EKSREYDRLFE [PIK3R1_Y463_YF] please.
0.991

For SHP2-C SH2, provide SH2 binding enrichment of KGSEGYLAATY [NF1_Y2503] please.
0.614

For SHP2-C SH2, provide SH2 binding enrichment of RFGKVYKAHLF [ROR2_Y488_G490A] please.
0.668

For SHP2-C SH2, provide SH2 binding enrichment of YRDALYKFIVD [PHEX_Y250_M253I] please.
0.774

For SHP2-C SH2, provide SH2 binding enrichment of KREPQYSSHSS [SIPA1L3_Y1265_G1261R] please.
0.885

For SHP2-C SH2, provide SH2 binding enrichment of KDHPDYKFQLR [SOX10_Y171_P175L_YF] please.
0.691

For SHP2-C SH2, provide SH2 binding enrichment of EEVGIYRMSGV [BCR_Y1089_V1091M] please.
0.957

For SHP2-C SH2, provide SH2 binding enrichment of FSQETYYRVSN [ABCD1_Y180_Q178E] please.
0.628

For SHP2-C SH2, provide SH2 binding enrichment of DYYDLYGGKKF [PTPN11_Y66_E69K] please.
0.581
